Here the recorded composite z-score is given for each entry.
METHOD_DESCRIPTION: probe aDKK1 binding to arrayed compounds – biochemical, biotinylated probe, 635/667 nm fluorescence, primary screen (AID 1099);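 also: score merges 667nm spot fluorescence with signal to noise across triplicate slides; reference of the scale not given here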
CONDITION_PARAMETERS: small-molecule microarray, higher = more signal
MEASURED_ENDPOINT: composite z-score

- COMPOUND: "C=CCC(OC(C)=O)[C@@H]1[C@@H](N(Cc2cc3ccccc3o2)C(=O)c2cccc3ccccc23)c2cc(OCCCO)ccc2N1C(=O)Cc1ccc2ccccc2c1 (some centres not stated)"
  MEASURED_ENDPOINT: "composite z-score"
  READOUT_VALUE: 0.224
- COMPOUND: "C=CCNC(=O)[C@H]1[C@@H]2C(=O)O[C@@H](c3ccccc3)[C@@H](c3ccccc3)N2[C@@H](c2ccc(O)cc2)[C@]12C(=O)Nc1ccc(C#Cc3ccc(OC)cc3)cc12"
  MEASURED_ENDPOINT: "composite z-score"
  READOUT_VALUE: 0.257
- COMPOUND: "CC(C)NC(=O)[C@@H]1c2ccccc2C(=O)N(C2CCCCC2)[C@H]1c1ccc(CO)cc1"
  MEASURED_ENDPOINT: "composite z-score"
  READOUT_VALUE: 0.678
- COMPOUND: "C=C(/C(=C/C[C@@H](OC(C)=O)c1ccc(CO)o1)c1cnc2ccccc2c1)C(C)C"
  MEASURED_ENDPOINT: "composite z-score"
  READOUT_VALUE: -0.198
- COMPOUND: "NC(=O)NCC#Cc1ccc2c(c1)[C@]1(C(=O)N2)[C@H](C(=O)NC[C@H](O)c2ccccc2)[C@H]2C(=O)O[C@H](c3ccccc3)[C@H](c3ccccc3)N2[C@@H]1c1ccccc1OCCO"
  MEASURED_ENDPOINT: "composite z-score"
  READOUT_VALUE: -0.0611
- COMPOUND: "O=S(=O)(NCCCO)c1ccc(Br)cc1"
  MEASURED_ENDPOINT: "composite z-score"
  READOUT_VALUE: 0.101
- COMPOUND: "CCCC[C@H]1C[C@@H]1[C@@H]1N(P(=O)(c2ccccc2)c2ccccc2)[C@](CO)(c2ccccc2)CC12CC2"
  MEASURED_ENDPOINT: "composite z-score"
  READOUT_VALUE: 0.639
